These data points were gathered from paper PMC9495854.

// inhibition at 10 µM lookup, one value per entry
# Assayed Target: Aβ1-40 aggregation (Homo sapiens)
# Construct: purchased EZBiolab
# Sequence (P05067 672-711 limits assumed): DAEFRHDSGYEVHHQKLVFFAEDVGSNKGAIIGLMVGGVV
# Experiment Notes: Inhibition of Aβ40 aggregation, ThT fluorescence
# Assay type: biochemical
# Recorded Conditions: inhibitor 10 µM, Aβ40 30 µM, PBS pH 7.4, 2% HFIP, 2 h 25 °C; mean ± SEM; read-out: Aβ1-40 Aggregation (I% at 10 µM)
// note: answer is a bare numeric in %

Solved cases below.
O=C(NCCN1CCN(Cc2ccccc2Cl)CC1)c1ccc2c(c1)Nc1ccccc1S2 [Compound 12b] | 27
O=C(NCCN1CCN(Cc2ccccc2)CC1)c1ccc2c(c1)Nc1ccccc1S2 [Compound 12a] | 43
O=C(NCC1CCN(Cc2ccccc2F)CC1)c1ccc2c(c1)Nc1ccccc1S2 [Compound 11d] | 43

Query compound follows.
Q: Query inhibition at 10 µM on Aβ1-40 aggregation (Homo sapiens) for COc1cccc(CN2CCC(CNC(=O)c3ccc4c(c3)Nc3ccccc3S4)CC2)c1 [Compound 11e]
A: 24

* * *

# Assayed Target: hAChE (Homo sapiens)
# Construct: purchased
# Experiment Notes: biochemical
# Type: biochemical
# Recorded Conditions: inhibition at 10 µM; mean ± SEM
Marks after values point to notes of the source that are not given here.
Reported Endpoint: hAChE I% at 10 µM

Solved cases below.
O=C(NCC1CCN(Cc2ccccc2Cl)CC1)c1ccc2c(c1)Nc1ccccc1S2 [Compound 11b] | 52% ± 1 ^b
CC(=O)N1c2ccccc2Sc2ccc(C(=O)NCCN3CCN(Cc4ccccc4Cl)CC3)cc21 [Compound 13] | 48% ± 5 ^b

Q: Can you look up the measured hAChE I% at 10 µM of Cc1ccccc1CN1CCC(CNC(=O)c2ccc3c(c2)Nc2ccccc2S3)CC1 [Compound 11c] for me?
A: 44% ± 2 ^b

Q: Also, Cc1ccccc1CN1CCN(CCNC(=O)c2ccc3c(c2)Nc2ccccc2S3)CC1 [Compound 12c] please.
A: 56% ± 3 ^b

Q: Also, COc1cccc(CN2CCC(CNC(=O)c3ccc4c(c3)Nc3ccccc3S4)CC2)c1 [Compound 11e] please.
A: 22% ± 4 ^b

* * *

// IC50 lookup, one value per entry
# Assayed Target: FAAH Human recombinant (Homo sapiens)
# Sequence (O00519 whole entry): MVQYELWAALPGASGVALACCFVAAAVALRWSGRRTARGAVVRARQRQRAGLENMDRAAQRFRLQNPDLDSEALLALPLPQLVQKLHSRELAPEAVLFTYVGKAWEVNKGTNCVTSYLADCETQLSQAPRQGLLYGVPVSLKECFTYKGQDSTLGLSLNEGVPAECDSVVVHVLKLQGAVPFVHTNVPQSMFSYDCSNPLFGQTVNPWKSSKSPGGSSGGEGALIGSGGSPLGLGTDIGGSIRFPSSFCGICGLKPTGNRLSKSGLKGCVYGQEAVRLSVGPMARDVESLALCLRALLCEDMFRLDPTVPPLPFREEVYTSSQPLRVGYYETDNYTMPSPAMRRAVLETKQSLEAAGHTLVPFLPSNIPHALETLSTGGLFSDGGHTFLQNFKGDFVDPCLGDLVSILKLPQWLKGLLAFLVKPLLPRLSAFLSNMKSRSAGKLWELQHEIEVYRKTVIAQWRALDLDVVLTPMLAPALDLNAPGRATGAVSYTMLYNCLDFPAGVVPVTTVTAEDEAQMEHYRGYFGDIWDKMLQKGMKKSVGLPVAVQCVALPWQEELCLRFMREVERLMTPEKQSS
# Experiment Notes: FAAH inhibition, fluorometric assay
# Recorded Conditions: mean ± SEM; read-out: hFAAH (IC50)
// note: answer is a bare numeric in µM

Solved cases below.
O=C(NCCN1CCN(Cc2ccccc2F)CC1)c1ccc2c(c1)Nc1ccccc1S2 [Compound 12d] | 9.65
CC(=O)N1c2ccccc2Sc2ccc(C(=O)NCCN3CCN(Cc4ccccc4Cl)CC3)cc21 | 16.9
O=C(NCCN1CCN(Cc2ccccc2Cl)CC1)c1ccc2c(c1)Nc1ccccc1S2 [Compound 12b] | 6.31

Q: Can you look up the measured IC50 of COc1cccc(CN2CCC(CNC(=O)c3ccc4c(c3)Nc3ccccc3S4)CC2)c1 [Compound 11e] for me?
A: 13

Q: Also, Cc1ccccc1CN1CCC(CNC(=O)c2ccc3c(c2)Nc2ccccc2S3)CC1 [Compound 11c] please.
A: 3.08

Q: Also, O=C(NCC1CCN(Cc2ccccc2F)CC1)c1ccc2c(c1)Nc1ccccc1S2 [Compound 11d] please.
A: 5.06

* * *

# Assayed Target: hAChE (Homo sapiens, UniProt P22303)
# Sequence (P22303 32-614): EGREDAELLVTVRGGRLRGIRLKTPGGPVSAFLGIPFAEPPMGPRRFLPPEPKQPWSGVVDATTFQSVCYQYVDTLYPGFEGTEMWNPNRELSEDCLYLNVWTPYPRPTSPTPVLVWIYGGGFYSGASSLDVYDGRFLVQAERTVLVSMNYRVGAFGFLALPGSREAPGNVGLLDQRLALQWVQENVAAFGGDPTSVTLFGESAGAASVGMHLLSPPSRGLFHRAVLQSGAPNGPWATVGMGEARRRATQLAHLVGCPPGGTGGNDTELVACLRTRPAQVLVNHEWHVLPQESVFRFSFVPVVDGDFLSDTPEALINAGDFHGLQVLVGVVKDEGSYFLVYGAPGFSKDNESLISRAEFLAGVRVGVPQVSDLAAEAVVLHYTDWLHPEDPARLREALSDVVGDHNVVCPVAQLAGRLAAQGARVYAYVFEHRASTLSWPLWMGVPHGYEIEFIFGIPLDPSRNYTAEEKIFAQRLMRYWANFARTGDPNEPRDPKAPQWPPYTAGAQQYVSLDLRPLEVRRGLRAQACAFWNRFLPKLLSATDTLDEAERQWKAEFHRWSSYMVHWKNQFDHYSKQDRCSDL
// pIC50 lookup, one value per entry
Would you please state pIC50, meaning minus log10 of the concentration in mol/L, as a bare number?

Solved cases below.
O=C(NCCN1CCN(Cc2ccccc2)CC1)c1ccc2c(c1)Nc1ccccc1S2 [Compound 12a] | 6.03
O=C(NCC1CCN(Cc2ccccc2)CC1)c1ccc2c(c1)Nc1ccccc1S2 [Compound 11a] | 6.22
O=C(NCC1CCN(Cc2ccccc2F)CC1)c1ccc2c(c1)Nc1ccccc1S2 [Compound 11d] | 5.76
O=C(NCCN1CCN(Cc2ccccc2Cl)CC1)c1ccc2c(c1)Nc1ccccc1S2 [Compound 12b] | 5.73

Query molecule follows.
Q: Can you look up the measured pIC50 of O=C(NCCN1CCN(Cc2ccccc2F)CC1)c1ccc2c(c1)Nc1ccccc1S2 [Compound 12d] for me?
A: 6.22
